These measurements were taken from ChEMBL document CHEMBL2346534.

Tested on: MOLT-4
Assay: Cytotoxicity against human MOLT4 cells assessed as cell growth at 10^-5 M after 48 hrs by SRB assay
Format: functional
Details: MOLT-4, 48 h, read-out: Activity
Values of growth at 10 µM greater than or equal to 90% map to criterion met; values below map to criterion not met.

Record CCOC(=O)/C(C#N)=C\Nc1ccc2ncnc(Nc3ccccc3Cl)c2c1 ; criterion: growth at 10 µM no lower than 90%. Met?
criterion not met

Record NC(=O)Nc1ccc2ncnc(Nc3cccc(O)c3)c2c1 ; criterion: growth at 10 µM no lower than 90%. Met?
criterion met

Record CCOC(=O)/C(C#N)=C\Nc1ccc2ncnc(Nc3ccc(Cl)cc3Cl)c2c1 ; criterion: growth at 10 µM no lower than 90%. Met?
criterion not met

Record NC(=O)Nc1ccc2ncnc(Nc3ccc(Cl)cc3)c2c1 ; criterion: growth at 10 µM no lower than 90%. Met?
criterion not met

Record CCOC(=O)/C(C#N)=C\Nc1ccc2ncnc(Nc3ccc(Cl)cc3)c2c1 ; criterion: growth at 10 µM no lower than 90%. Met?
criterion not met

----------
Assay: Cytotoxicity against human NCI-ADR-RES cells assessed as cell growth at 10^-5 M after 48 hrs by SRB assay
Format: functional
Conditions: read-out: Activity
Consider the cut-off 90%. If the recorded growth at 10 µM is strictly smaller, the label is Fulfilled; if not, the label is Not fulfilled.

Say whether its growth at 10 µM is strictly beneath 90%. Entry: NC(=O)Nc1ccc2ncnc(Nc3cccc(O)c3)c2c1
Not fulfilled

Say whether its growth at 10 µM is strictly beneath 90%. Entry: CCOC(=O)/C(C#N)=C\Nc1ccc2ncnc(Nc3ccc(Cl)cc3)c2c1
Fulfilled

Say whether its growth at 10 µM is strictly beneath 90%. Entry: CCOC(=O)/C(C#N)=C\Nc1ccc2ncnc(Nc3ccccc3Cl)c2c1
Not fulfilled

Say whether its growth at 10 µM is strictly beneath 90%. Entry: C#Cc1cccc(Nc2ncnc3ccc(N/C=C(\C#N)C(=O)OCC)cc23)c1
Not fulfilled

Say whether its growth at 10 µM is strictly beneath 90%. Entry: CCOC(=O)/C(C#N)=C\Nc1ccc2ncnc(Nc3ccc(Cl)cc3Cl)c2c1
Fulfilled

----------
Test system: MDA-MB-468
Assay: Cytotoxicity against human MDA-MB-468 cells assessed as cell growth at 10^-5 M after 48 hrs by SRB assay
Assay type: functional
Conditions: MDA-MB-468, 48 h, read-out: Activity
Record form. Attribute: growth at 10 µM. Fill in for each entry.
Express it in %; write the number only.

Endpoint output: growth at 10 µM of C#Cc1cccc(Nc2ncnc3ccc(N/C=C(\C#N)C(=O)OCC)cc23)c1 . Value?
40.4

Endpoint output: growth at 10 µM of NC(=O)Nc1ccc2ncnc(Nc3cccc(O)c3)c2c1 . Value?
67.9

Endpoint output: growth at 10 µM of NC(=O)Nc1ccc2ncnc(Nc3ccc(Cl)cc3)c2c1 . Value?
-7.15

Endpoint output: growth at 10 µM of CCOC(=O)/C(C#N)=C\Nc1ccc2ncnc(Nc3ccc(Cl)cc3)c2c1 . Value?
26.6

Endpoint output: growth at 10 µM of CCOC(=O)/C(C#N)=C\Nc1ccc2ncnc(Nc3ccc(Cl)cc3Cl)c2c1 . Value?
56.4

Endpoint output: growth at 10 µM of CCOC(=O)/C(C#N)=C\Nc1ccc2ncnc(Nc3ccccc3Cl)c2c1 . Value?
34.7

----------
Record form. Attribute: growth at 10 µM. Fill in for each entry.
Test system: 786-0
Experiment: Cytotoxicity against human 786-0 cells assessed as cell growth at 10^-5 M after 48 hrs by SRB assay
Format: functional
Details: 786-0, 48 h, read-out: Activity
Express it in %; write the number only.

Endpoint output: growth at 10 µM of CCOC(=O)/C(C#N)=C\Nc1ccc2ncnc(Nc3ccc(Cl)cc3Cl)c2c1 . Value?
82.6

Endpoint output: growth at 10 µM of C#Cc1cccc(Nc2ncnc3ccc(N/C=C(\C#N)C(=O)OCC)cc23)c1 . Value?
91.7

Endpoint output: growth at 10 µM of CCOC(=O)/C(C#N)=C\Nc1ccc2ncnc(Nc3ccccc3Cl)c2c1 . Value?
91.3

Endpoint output: growth at 10 µM of NC(=O)Nc1ccc2ncnc(Nc3cccc(O)c3)c2c1 . Value?
92.6

Endpoint output: growth at 10 µM of NC(=O)Nc1ccc2ncnc(Nc3ccc(Cl)cc3)c2c1 . Value?
85.9

Endpoint output: growth at 10 µM of CCOC(=O)/C(C#N)=C\Nc1ccc2ncnc(Nc3ccc(Cl)cc3)c2c1 . Value?
83.1

----------
Record form. Attribute: growth at 10 µM. Fill in for each entry.
Test system: SF-295
Assay: Cytotoxicity against human SF295 cells assessed as cell growth at 10^-5 M after 48 hrs by SRB assay
Format: functional
Conditions: SF-295, 48 h, read-out: Activity
Record the result as a number with its unit.

Endpoint output: growth at 10 µM of NC(=O)Nc1ccc2ncnc(Nc3cccc(O)c3)c2c1 . Value?
98.1%

Endpoint output: growth at 10 µM of CCOC(=O)/C(C#N)=C\Nc1ccc2ncnc(Nc3ccc(Cl)cc3)c2c1 . Value?
74.3%

Endpoint output: growth at 10 µM of CCOC(=O)/C(C#N)=C\Nc1ccc2ncnc(Nc3ccccc3Cl)c2c1 . Value?
102%

Endpoint output: growth at 10 µM of CCOC(=O)/C(C#N)=C\Nc1ccc2ncnc(Nc3ccc(Cl)cc3Cl)c2c1 . Value?
82.2%

Endpoint output: growth at 10 µM of C#Cc1cccc(Nc2ncnc3ccc(N/C=C(\C#N)C(=O)OCC)cc23)c1 . Value?
95.6%

Endpoint output: growth at 10 µM of NC(=O)Nc1ccc2ncnc(Nc3ccc(Cl)cc3)c2c1 . Value?
90.7%

----------
Tested on: HCC 2998
Assay: Cytotoxicity against human HCC2998 cells assessed as cell growth at 10^-5 M after 48 hrs by SRB assay
Type: functional
Settings: HCC 2998, 48 h, read-out: Activity
OBSERVABLE: growth at 10 µM (%)
Express it in %; write the number only.

Endpoint output: growth at 10 µM of NC(=O)Nc1ccc2ncnc(Nc3ccc(Cl)cc3)c2c1 . Value?
97.9

Endpoint output: growth at 10 µM of CCOC(=O)/C(C#N)=C\Nc1ccc2ncnc(Nc3ccccc3Cl)c2c1 . Value?
117

Endpoint output: growth at 10 µM of C#Cc1cccc(Nc2ncnc3ccc(N/C=C(\C#N)C(=O)OCC)cc23)c1 . Value?
102

Endpoint output: growth at 10 µM of CCOC(=O)/C(C#N)=C\Nc1ccc2ncnc(Nc3ccc(Cl)cc3Cl)c2c1 . Value?
119

Endpoint output: growth at 10 µM of CCOC(=O)/C(C#N)=C\Nc1ccc2ncnc(Nc3ccc(Cl)cc3)c2c1 . Value?
101

Endpoint output: growth at 10 µM of NC(=O)Nc1ccc2ncnc(Nc3cccc(O)c3)c2c1 . Value?
102

----------
OBSERVABLE: pIC50
Keep in mind that pIC50 stands for -log10 of concentration in molar terms.

Form: Entry = NC(=O)Nc1ccc2ncnc(Nc3ccc(Cl)cc3)c2c1 | System = Epidermal growth factor receptor (Homo sapiens) | pIC50 = ____
7.21

----------
Record form. Attribute: growth at 10 µM. Fill in for each entry.
Tested on: M14
Assay: Cytotoxicity against human M14 cells assessed as cell growth at 10^-5 M after 48 hrs by SRB assay
Format: functional
Conditions: M14, 48 h, read-out: Activity
Express it in %; write the number only.

Endpoint output: growth at 10 µM of CCOC(=O)/C(C#N)=C\Nc1ccc2ncnc(Nc3ccc(Cl)cc3Cl)c2c1 . Value?
106

Endpoint output: growth at 10 µM of NC(=O)Nc1ccc2ncnc(Nc3ccc(Cl)cc3)c2c1 . Value?
107

Endpoint output: growth at 10 µM of NC(=O)Nc1ccc2ncnc(Nc3cccc(O)c3)c2c1 . Value?
102

Endpoint output: growth at 10 µM of CCOC(=O)/C(C#N)=C\Nc1ccc2ncnc(Nc3ccccc3Cl)c2c1 . Value?
119

Endpoint output: growth at 10 µM of CCOC(=O)/C(C#N)=C\Nc1ccc2ncnc(Nc3ccc(Cl)cc3)c2c1 . Value?
106

Endpoint output: growth at 10 µM of C#Cc1cccc(Nc2ncnc3ccc(N/C=C(\C#N)C(=O)OCC)cc23)c1 . Value?
114

----------
Test system: OVCAR-5
Assay: Cytotoxicity against human OVCAR5 cells assessed as cell growth at 10^-5 M after 48 hrs by SRB assay
Type: functional
Conditions: OVCAR-5, 48 h, read-out: Activity
OBSERVABLE: growth at 10 µM (%)
Express it in %; write the number only.

Endpoint output: growth at 10 µM of CCOC(=O)/C(C#N)=C\Nc1ccc2ncnc(Nc3ccc(Cl)cc3Cl)c2c1 . Value?
82.2

Endpoint output: growth at 10 µM of CCOC(=O)/C(C#N)=C\Nc1ccc2ncnc(Nc3ccccc3Cl)c2c1 . Value?
90.1

Endpoint output: growth at 10 µM of NC(=O)Nc1ccc2ncnc(Nc3cccc(O)c3)c2c1 . Value?
98.1

Endpoint output: growth at 10 µM of CCOC(=O)/C(C#N)=C\Nc1ccc2ncnc(Nc3ccc(Cl)cc3)c2c1 . Value?
92.8

Endpoint output: growth at 10 µM of C#Cc1cccc(Nc2ncnc3ccc(N/C=C(\C#N)C(=O)OCC)cc23)c1 . Value?
89.5

Endpoint output: growth at 10 µM of NC(=O)Nc1ccc2ncnc(Nc3ccc(Cl)cc3)c2c1 . Value?
83.6
